assay: Cell viability assay (resazurin), BJhTERT non-transformed control; format: cell-based; details: human, BJhTERT immortalized fibroblast cells, BJhTERT, Log conc. (M) 1.69824e-9; read-out: cell viability, cytotoxicity curve (Figure3H)
parameterMeasured: viability at 72 h, 1.69824e-09 M (%)
Entry rule: numbers only, all in %.

Entry O=C(Nc1ccc(I)cc1)N1CCC(n2c(=O)[nH]c3c(Br)cccc32)CC1 [TH5487, reference compound] ; viability at 72 h, 1.69824e-09 M = 74.4

* * *

test: Cell viability assay (resazurin), BJhTERT non-transformed control; type: cell-based; settings: human, BJhTERT, Log conc. (M) 0.0001; read-out: cell viability, cytotoxicity curve (Figure3H)
parameterMeasured: viability at 72 h, 0.0001 M (%)
Entry rule: numbers only, all in %.

Entry Nc1nn(-c2ccc(CC(=O)Nc3noc4c3CCCC4)cc2)c2ccccc12 ; viability at 72 h, 0.0001 M = 38.2

* * *

Would you kindly list percentage cell viability for each of these compounds?
test system: A2780 cells; experiment: Cancer cell viability assay (resazurin), A2780; assay type: cell-based; details: A2780, 100 μM, two independent experiments; 100 µM
Entry rule: numbers only, all in %.

Entry O=C(Cc1ccc(-n2nc(Cl)c3ccccc32)cc1)Nc1noc2c1CCCC2 ; percentage cell viability = 0.88

Entry Cc1cc(C2CC2)n(-c2ccc(CC(=O)Nc3noc4c3CCCC4)cc2)n1 ; percentage cell viability = 25.03

Entry Cc1nc(-c2ccc(CC(=O)Nc3noc4c3CCCC4)cc2F)c(C)[nH]1 ; percentage cell viability = 4.22

Entry Cc1nn(-c2ccc(CC(=O)Nc3noc4c3CCCC4)cc2)c2ccccc12 ; percentage cell viability = 1.45

Entry Cc1nn(-c2ccc(CC(=O)Nc3noc4c3CCCC4)cc2)c2ccc(N)cc12 ; percentage cell viability = 5.95

Entry Cc1nc(-c2ccc(CC(=O)Nc3noc4c3CCCC4)c(C)c2)c(C)[nH]1 ; percentage cell viability = 2.96

Entry Cc1nc(-c2ccc(CC(=O)Nc3noc4c3CCCC4)nc2)c(C)[nH]1 ; percentage cell viability = 65.16

Entry Cc1cc(C)n(-c2cc(F)c(CC(=O)Nc3noc4c3CCCC4)c(F)c2)n1 ; percentage cell viability = 19.16

Entry Cc1[nH]c(Br)nc1-c1ccc(CC(=O)Nc2noc3c2CCCC3)cc1 ; percentage cell viability = 6.18

Entry Cc1nc(-c2ccc(CC(=O)Nc3noc4c3CCCC4)cc2)c(C)[nH]1 ; percentage cell viability = 6.29

Entry Cc1nc(-c2ccc(CC(=O)Nc3noc4c3CCCC4)c(F)c2)c(C)[nH]1 ; percentage cell viability = 2.93

Entry Cc1nc(-c2cc(F)c(CC(=O)Nc3noc4c3CCCC4)c(F)c2)c(C)[nH]1 ; percentage cell viability = 42.92

Entry Nc1nn(-c2ccc(CC(=O)Nc3noc4c3CCCC4)cc2)c2ccccc12 ; percentage cell viability = 1.69

* * *

test system: A549 cells; experiment: Cancer cell viability assay (resazurin), A549; format: cell-based; conditions: A549, 100 μM, two independent experiments; 100 µM
parameterMeasured: percentage cell viability (%)
Entry rule: numbers only, all in %.

Entry Cc1nn(-c2ccc(CC(=O)Nc3noc4c3CCCC4)cc2)c2ccc(N)cc12 ; percentage cell viability = 28.85

Entry Nc1nn(-c2ccc(CC(=O)Nc3noc4c3CCCC4)cc2)c2ccccc12 ; percentage cell viability = 21.3

Entry Cc1cc(C)n(-c2cc(F)c(CC(=O)Nc3noc4c3CCCC4)c(F)c2)n1 ; percentage cell viability = 33.07

Entry Cc1cc(C2CC2)n(-c2ccc(CC(=O)Nc3noc4c3CCCC4)cc2)n1 ; percentage cell viability = 68.3

Entry Cc1nc(-c2cc(F)c(CC(=O)Nc3noc4c3CCCC4)c(F)c2)c(C)[nH]1 ; percentage cell viability = 73.95

Entry Cc1nn(-c2ccc(CC(=O)Nc3noc4c3CCCC4)cc2)c2ccccc12 ; percentage cell viability = 6.63

Entry Cc1[nH]c(Br)nc1-c1ccc(CC(=O)Nc2noc3c2CCCC3)cc1 ; percentage cell viability = 31.92

Entry Cc1nc(-c2ccc(CC(=O)Nc3noc4c3CCCC4)c(F)c2)c(C)[nH]1 ; percentage cell viability = 35.78

* * *

biological target: human OGG1 enzyme (Homo sapiens); experiment: Differential scanning fluorimetry (DSF) thermal shift assay; type: binding; conditions: concentration not given
parameterMeasured: ΔTm
# output: number + unit

Entry O=C(Nc1ccc(I)cc1)N1CCC(n2c(=O)[nH]c3c(Br)cccc32)CC1 [TH5487, reference compound] ; ΔTm = 4.3 K

Entry O=C(Nc1noc2c1CCCC2)[C@H]1Cc2ccccc21 [compound 5] ; ΔTm = 4.1 K

Entry O=C(Nc1noc2c1CCCC2)C1CC12CCC2 (stereo not drawn) [compound 1] ; ΔTm = 2.8 K

Entry Cc1nc(-c2ccc(CC(=O)Nc3noc4c3CCCC4)cc2)c(C)[nH]1 [compound 17] ; ΔTm = 8.1 K

Entry Cc1cc(C)n(-c2ccc(CC(=O)Nc3noc4c3CCCC4)cc2)n1 [compound 7] ; ΔTm = 5.5 K

Entry Cc1nc(-c2cc(F)c(CC(=O)Nc3noc4c3CCCC4)c(F)c2)c(C)[nH]1 [compound 23] ; ΔTm = 9.0 K

* * *

Would you kindly list viability at 72 h, 100 µM for each of these compounds?
experiment: Cell viability assay (resazurin), BJhTERT non-transformed control; assay type: cell-based; details: human, BJhTERT, 100 μM, two independent experiments; read-out: percentage cell viability
Entry rule: numbers only, all in %.

Entry Cc1cc(C)n(-c2cc(F)c(CC(=O)Nc3noc4c3CCCC4)c(F)c2)n1 ; viability at 72 h, 100 µM = 40.1

Entry Cc1nc(-c2ccc(CC(=O)Nc3noc4c3CCCC4)cc2F)c(C)[nH]1 ; viability at 72 h, 100 µM = 38.1

Entry Cc1nn(-c2ccc(CC(=O)Nc3noc4c3CCCC4)cc2)c2ccccc12 ; viability at 72 h, 100 µM = 8.08

Entry Cc1nc(-c2ccc(CC(=O)Nc3noc4c3CCCC4)c(F)c2)c(C)[nH]1 ; viability at 72 h, 100 µM = 23.9

Entry Cc1[nH]c(Br)nc1-c1ccc(CC(=O)Nc2noc3c2CCCC3)cc1 ; viability at 72 h, 100 µM = 63.3

Entry O=C(Cc1ccc(-n2nc(Cl)c3ccccc32)cc1)Nc1noc2c1CCCC2 ; viability at 72 h, 100 µM = 30.1

* * *

Would you kindly list Papp A→B at 60 min, 10 µM for each of these compounds?
Assay: Caco-2 cell permeability assay
Type: in vitro ADME
Details: human, Caco-2, pH 7.4; read-out: Papp AB (10–6 cm/s)
Description: Prior to the experiment a drug solution of 10 µM was prepared and warmed to 37 °C. The Caco-2 filters were washed with pre-warmed HBSS prior to the experiment, and thereafter the experiment was started by applying the donor solution on the apical or basolateral side. […] The samples (100 µL) were transferred to a 96-well plate containing 100 µL methanol and Warfarin as IS and was sealed until analyzed by liquid chromatography coupled to triple quadrupole mass spectrometry (LC-MS/MS).

Entry Cc1nc(-c2ccc(CC(=O)Nc3noc4c3CCCC4)cc2)c(C)[nH]1 ; Papp A→B at 60 min, 10 µM = 19.8 ×10⁻⁶ cm/s

Entry Cc1nc(-c2cc(F)c(CC(=O)Nc3noc4c3CCCC4)c(F)c2)c(C)[nH]1 ; Papp A→B at 60 min, 10 µM = 6.13 ×10⁻⁶ cm/s

Entry O=C(Nc1ccc(I)cc1)N1CCC(n2c(=O)[nH]c3c(Br)cccc32)CC1 [TH5487, reference compound] ; Papp A→B at 60 min, 10 µM = 4.16 ×10⁻⁶ cm/s

* * *

biological target: human OGG1 enzyme (Homo sapiens, UniProt O15527); experiment: OGG1 glycosylase activity assay (enzyme inhibition, APE1-coupled fluorescence); assay type: biochemical; settings: Table S5; ± SD; read-out: pIC50 (converted)
Sequence (O15527 whole entry): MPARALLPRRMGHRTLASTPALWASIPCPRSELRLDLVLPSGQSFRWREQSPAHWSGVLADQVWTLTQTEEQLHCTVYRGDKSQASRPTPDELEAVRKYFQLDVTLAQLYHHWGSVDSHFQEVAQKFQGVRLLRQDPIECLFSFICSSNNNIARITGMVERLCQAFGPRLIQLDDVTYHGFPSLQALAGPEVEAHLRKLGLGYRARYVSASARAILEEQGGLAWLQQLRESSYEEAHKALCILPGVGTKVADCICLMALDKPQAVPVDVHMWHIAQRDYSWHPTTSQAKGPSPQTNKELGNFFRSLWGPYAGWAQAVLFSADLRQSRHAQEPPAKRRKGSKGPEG
Entry class follows IC50: low = under 1000 nM, intermediate = from 1000 nM up to 4000 nM, high = 4000 nM and over

Which bin should I file O=C(Cc1ccc(-n2nc(Cl)c3ccccc32)cc1)Nc1noc2c1CCCC2 under?
high

Which bin should I file Cc1nn(-c2ccc(CC(=O)Nc3noc4c3CCCC4)cc2)c2ccccc12 under?
intermediate

Which bin should I file O=C(Cc1ccc(-n2ncc3ccncc32)cc1)Nc1noc2c1CCCC2 under?
high

Which bin should I file Cc1[nH]c(Br)nc1-c1ccc(CC(=O)Nc2noc3c2CCCC3)cc1 under?
intermediate

Which bin should I file Cc1nc(-c2ccc(CC(=O)Nc3noc4c3CCCC4)nc2)c(C)[nH]1 under?
intermediate

Which bin should I file Cc1nc(-c2ccc(CC(=O)Nc3noc4c3CCCC4)c(F)c2)c(C)[nH]1 under?
low

Which bin should I file O=C(Cc1ccc(-n2ncc3c2CCNC3)cc1)Nc1noc2c1CCCC2 under?
high

Which bin should I file Cc1nc(-c2ccc(CC(=O)Nc3noc4c3CCCC4)cc2F)c(C)[nH]1 under?
low

Which bin should I file Cc1nn(-c2ccc(CC(=O)Nc3noc4c3CCCC4)cc2)c2ccc(N)cc12 under?
high

Which bin should I file Cc1cc(C2CC2)n(-c2ccc(CC(=O)Nc3noc4c3CCCC4)cc2)n1 under?
intermediate

Which bin should I file Cc1nc(-c2ccc(CC(=O)Nc3noc4c3CCCC4)c(C)c2)c(C)[nH]1 under?
low
